I'd be grateful if you could share measured pIC50 for these entries.
# Experiment Summary: Inhibition of human recombinant FBPase using fructose-1,6-biphosphate as substrate incubated for 3 mins prior to substrate addition by spectrophotometric analysis
Keep in mind that pIC50 stands for -log10 of concentration in molar terms.

Task: Entry "CCOc1cc2nc(CCl)nc(Nc3cccc(-c4csc(C)n4)c3)c2cc1OCC" has what pIC50?
Output: 6.06

Task: Quick one: pIC50 for Nc1ncnc2c1ncn2[C@@H]1O[C@H](COP(=O)(O)O)[C@@H](O)[C@H]1O [ADENOSINE PHOSPHATE] ?
Output: 4.91

Task: Name the reported pIC50 value associated with the compound "CCOc1cc2ncnc(Nc3cccc(-c4nc[nH]n4)c3)c2cc1OCC"
Output: 6.19

Task: What value of pIC50 has been recorded for this entry: "O=C(O)CCCc1c(C(=O)O)[nH]c2cc(Cl)cc(Cl)c12"
Output: 6.00

Task: Which pIC50 value is on record for "CCOc1cc2ncnc(Nc3cccc(-c4cscn4)c3)c2cc1OCC" ?
Output: 6.41

Task: Recorded pIC50 for "CCOc1cc2ncnc(Nc3cccc(Br)c3)c2cc1[N+](=O)[O-]" , please?
Output: 5.44

Task: Find the recorded pIC50 belonging to "CCOc1nc(-c2cccc(Nc3ncnc4cc(OCC)c(OCC)cc34)c2)cs1" and report it.
Output: 5.21

Task: Consider the compound "CCOc1cc2ncnc(Nc3cccc(I)c3)c2cc1OCC" and give its measured pIC50.
Output: 5.68

---

# Experiment Summary: Inhibition of human recombinant FBPase using fructose-1,6-biphosphate as substrate incubated for 3 mins prior to substrate addition by spectrophotometric analysis
pIC50: −log10 of the molar value.
Decide using pIC50: a value greater than or equal to 6 is TRUE, a smaller one is FALSE.

Task: Does pIC50 meet or surpass 6 for "COCCOc1cc2ncnc(Nc3cccc(Br)c3)c2cc1OCCOC" ?
Output: FALSE

Task: Reported pIC50 at or above 6? "CCOc1cc2nc(Cl)nc(Nc3cccc(-c4csc(C)n4)c3)c2cc1OCC"
Output: FALSE

Task: Kindly determine if pIC50 recorded for "O=C(O)c1[nH]c2cc(Cl)cc(Cl)c2c1CCCO" is above or exactly 6.
Output: FALSE

Task: Evaluate "O=C(O)CCc1c(C(=O)NO)[nH]c2cc(Cl)cc(Cl)c12" : pIC50 at minimum 6?
Output: FALSE

Task: Could you please find out whether "CCOC(=O)c1csc(-c2csc(CCNC(=O)c3ccccc3)n2)n1" has pIC50 that meets 6 or exceeds it?
Output: TRUE

Task: Identify whether the reported pIC50 of the following molecule is 6 or greater: "CCOc1cc2ncnc(Nc3ccc(Cl)c(-c4csc(C)n4)c3)c2cc1OCC"
Output: FALSE

Task: Answer whether pIC50 of "COCCOc1cc2c(Nc3cccc(-c4csc(C)n4)c3)ncnc2cc1OC" is greater than or equal to 6.
Output: FALSE

Task: Is reported pIC50 greater than or equal to 6 here: "CCOc1cc2nc(CCl)nc(Nc3cccc(Br)c3)c2cc1OCC"
Output: FALSE

Task: Kindly determine if pIC50 recorded for "COCCOc1ccc2ncnc(Nc3cccc(Br)c3)c2c1" is above or exactly 6.
Output: FALSE

Task: Say whether O=C(CCCOc1ccc(Cl)cc1Cl)NC(CC1NCc2ccccc21)C(=O)O (stereo not drawn) shows pIC50 of 6 or more.
Output: FALSE

Task: For this molecule, is measured pIC50 6 or higher? "CCOc1cc2nc(CS(C)(=O)=O)nc(Nc3cccc(Br)c3)c2cc1OCC"
Output: FALSE

Task: Test whether the molecule "CCOc1cc2ncnc(Nc3cccc(-c4csc(N)n4)c3)c2cc1OCC" records pIC50 of 6 or higher.
Output: FALSE

Task: Reported pIC50 reaches at least 6 for "CCOc1cc2ncnc(Nc3cccc(-c4cocn4)c3)c2cc1OCC" ?
Output: FALSE

Task: Is reported pIC50 greater than or equal to 6 here: "CC1(C)N=C(N)N=C(N)N1c1cccc(OCCOc2ccccc2[N+](=O)[O-])c1"
Output: TRUE

Task: Given "CCOc1cc2ncnc(Nc3cccc(-c4nccs4)c3)c2cc1OCC" , state whether its pIC50 is at least 6.
Output: TRUE

Task: Textbook exercise: given the entry "CCOc1cc2ncnc(Nc3cccc(-c4csc(COC)n4)c3)c2cc1OCC" , state whether its pIC50 is greater than or equal to 6.
Output: FALSE

Task: Test whether the molecule "CCOc1cc2nc(CN(CC)CC)nc(Nc3cccc(Br)c3)c2cc1OCC" records pIC50 of 6 or higher.
Output: FALSE

Task: Evaluate "CCCc1nc(-c2cccc(Nc3ncnc4cc(OCC)c(OCC)cc34)c2)cs1" : pIC50 at minimum 6?
Output: FALSE

Task: Hi, just wondering whether "CCOc1cc2nc(CS(C)(=O)=O)nc(Nc3cccc(-c4csc(C)n4)c3)c2cc1OCC" shows pIC50 of 6 or higher.
Output: FALSE

Task: I'd appreciate it if you could say whether "CCOc1cc2ncnc(Nc3ccccc3)c2cc1OCC" has pIC50 at least equal to 6.
Output: FALSE

Task: Item "CCOc1cc2ncnc(Nc3cc(-c4csc(C)n4)ccc3Br)c2cc1OCC" with pIC50 of 6 or above?
Output: FALSE

Task: Form field: pIC50 at least 6? Entry: "CCOc1cc2ncnc(Nc3cccc(-c4csc(-c5ccccc5)n4)c3)c2cc1OCC"
Output: FALSE

Task: # bool: pIC50 of "CCOc1cc2ncnc(Nc3cccc(-c4csc(C)n4)c3)c2cc1OC" >= 6
Output: FALSE

Task: Is pIC50 for "CCOc1cc2ncnc(Nc3cccc(-c4csc(NN)n4)c3)c2cc1OCC" at or above 6?
Output: FALSE

Task: Is reported pIC50 greater than or equal to 6 here: "CCOc1cc2ncnc(Nc3ccc(F)c(-c4csc(C)n4)c3F)c2cc1OCC"
Output: FALSE

Task: Is pIC50 at least 6? Consider "COc1cc2ncnc(Nc3cccc(-c4csc(C)n4)c3)c2cc1OC(C)C"
Output: FALSE

Task: Threshold query (pIC50 >= 6) on "NC(=O)c1[nH]c2cc(Cl)cc(Cl)c2c1CCC(=O)O"
Output: FALSE

Task: Test whether the molecule "CCOc1cc2c(Nc3cccc(-c4csc(C)n4)c3)ncnc2cc1OC(C)C" records pIC50 of 6 or higher.
Output: TRUE

Task: Is the recorded value of pIC50 equal to or greater than 6 for this molecule? "CCOc1cc2ncnc(Nc3ccc(F)c(-c4csc(C)n4)c3)c2cc1OCC"
Output: TRUE

Task: # check: pIC50 of "CCOc1cc2nc(CC(C)C)nc(Nc3cccc(Br)c3)c2cc1OCC" is greater than or equal to 6
Output: FALSE

Task: Would you say "CCOc1cc2ncnc(Nc3cccc(-c4ccc(C)cc4)c3)c2cc1OCC" shows pIC50 at minimum 6?
Output: FALSE

Task: I'd appreciate it if you could say whether "COc1cc(-c2cccc(N)c2)c2oc(NS(=O)(=O)c3cc(Cl)ccc3Cl)nc2c1" has pIC50 at least equal to 6.
Output: TRUE

Task: # check: pIC50 of "CCOc1cc2ncnc(Nc3cccc(-c4ccccc4C)c3)c2cc1OCC" is greater than or equal to 6
Output: FALSE
